assay: Approximate solubility of pomalidomide at 50°C in 96 solvent compositions (LC); assay type: physicochemical; conditions: binary solvent composition (main solvent and co-solvent), 50 °C, organic solvent or mixture, thermodynamic from solid, solvent system B1 of Table 7, read-out: Approximate Measured Solubility
parameter: solubility at 2 h (µg/mL)
# unit: µg/mL | format: bare number

Lab book: solubility at 2 h of Nc1cccc2c1C(=O)N(C1CCC(=O)NC1=O)C2=O (stereo not shown) [Pomalidomide] noted as 230

====

assay: Approximate solubility of pomalidomide at 50°C in 96 solvent compositions (LC); assay type: physicochemical; settings: binary solvent composition (main solvent and co-solvent), 50 °C, organic solvent or mixture, thermodynamic from solid, solvent system D10 of Table 7, read-out: Approximate Measured Solubility
parameter: solubility at 2 h (mg/mL)
# unit: mg/mL | format: bare number

Lab book: solubility at 2 h of Nc1cccc2c1C(=O)N(C1CCC(=O)NC1=O)C2=O (stereo not shown) [Pomalidomide] noted as 0.56

====

assay: Approximate solubility of pomalidomide at 50°C in 96 solvent compositions (LC); type: physicochemical; settings: binary solvent composition (main solvent and co-solvent), 50 °C, organic solvent or mixture, thermodynamic from solid, solvent system C6 of Table 7, read-out: Approximate Measured Solubility
parameter: solubility at 2 h (µg/mL)
# unit: µg/mL | format: bare number

Lab book: solubility at 2 h of Nc1cccc2c1C(=O)N(C1CCC(=O)NC1=O)C2=O (stereo not shown) [Pomalidomide] noted as 260

====

assay: Approximate solubility of pomalidomide at 50°C in 96 solvent compositions (LC); assay type: physicochemical; conditions: binary solvent composition (main solvent and co-solvent), 50 °C, organic solvent or mixture, thermodynamic from solid, solvent system A5 of Table 7, read-out: Approximate Measured Solubility
parameter: solubility at 2 h (µg/mL)
# unit: µg/mL | format: bare number

Lab book: solubility at 2 h of Nc1cccc2c1C(=O)N(C1CCC(=O)NC1=O)C2=O (stereo not shown) [Pomalidomide] noted as 800

====

assay: Approximate solubility of pomalidomide at 50°C in 96 solvent compositions (LC); assay type: physicochemical; conditions: binary solvent mixture (main solvent and co-solvent), 50 °C, organic solvent or mixture, thermodynamic from solid, solvent system G5 of Table 7, read-out: Approximate Measured Solubility
parameter: solubility at 2 h (µg/mL)
# unit: µg/mL | format: bare number

Lab book: solubility at 2 h of Nc1cccc2c1C(=O)N(C1CCC(=O)NC1=O)C2=O (stereo not shown) [Pomalidomide] noted as 60

====

experiment: Approximate solubility of pomalidomide at 50°C in 96 solvent compositions (LC); format: physicochemical; details: binary solvent mixture (main solvent and co-solvent), 50 °C, organic solvent or mixture, thermodynamic from solid, solvent system E2 of Table 7, read-out: Approximate Measured Solubility
parameter: solubility at 2 h (mg/mL)
# unit: mg/mL | format: bare number

Lab book: solubility at 2 h of Nc1cccc2c1C(=O)N(C1CCC(=O)NC1=O)C2=O (stereo not shown) [Pomalidomide] noted as 0.69

====

experiment: Approximate solubility of pomalidomide at 50°C in 96 solvent compositions (LC); assay type: physicochemical; conditions: binary solvent mixture (main solvent and co-solvent), 50 °C, organic solvent or mixture, thermodynamic from solid, solvent system G9 of Table 7, read-out: Approximate Measured Solubility
parameter: solubility at 2 h (µg/mL)
# unit: µg/mL | format: bare number

Lab book: solubility at 2 h of Nc1cccc2c1C(=O)N(C1CCC(=O)NC1=O)C2=O (stereo not shown) [Pomalidomide] noted as 650
